Molecular target: T1, human IL-33 (R&D Systems, #3625-IL-010/CF) (human, UniProt O95760 112-270)
T1 construct: Commercial recombinant protein; also called hIL-33; interleukin-33
T1 sequence (looked up): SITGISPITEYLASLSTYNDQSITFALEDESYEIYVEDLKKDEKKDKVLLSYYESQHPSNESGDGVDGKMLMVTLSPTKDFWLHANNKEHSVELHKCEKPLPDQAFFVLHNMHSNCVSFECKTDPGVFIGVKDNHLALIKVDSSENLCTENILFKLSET
Experiment: SPR 37C pH7.4, mAb captured
Method: Equilibrium dissociation constants (KD values) for IL-33 binding to purified anti-IL-33 monoclonal antibodies were determined using a real-time surface plasmon resonance biosensor using a Biacore 4000 instrument. […] Association of either hIL-33 or MfIL-33-6His to the captured monoclonal antibody was monitored for 4 minutes and their dissociation in ABS-ET running buffer was monitored for 10 minutes. […]
Entries and their measured pKd follow.
As a rule, pKd stands for the negative log10 of the concentration, concentration in M.

Observe how each entry below is paired with its result.
H4H9676P (antibody, human IgG4, V domains shown, Human IgG4 Fc (H4H)) VH: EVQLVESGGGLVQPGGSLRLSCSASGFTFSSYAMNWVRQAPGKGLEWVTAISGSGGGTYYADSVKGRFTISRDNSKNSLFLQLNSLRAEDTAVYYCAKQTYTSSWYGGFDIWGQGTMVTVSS VL: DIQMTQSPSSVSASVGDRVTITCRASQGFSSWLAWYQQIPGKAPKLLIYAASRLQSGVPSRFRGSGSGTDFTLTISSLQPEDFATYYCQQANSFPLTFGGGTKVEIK
9.04
H4H9633P (antibody, human IgG4, V domains shown, Human IgG4 Fc (H4H)) VH: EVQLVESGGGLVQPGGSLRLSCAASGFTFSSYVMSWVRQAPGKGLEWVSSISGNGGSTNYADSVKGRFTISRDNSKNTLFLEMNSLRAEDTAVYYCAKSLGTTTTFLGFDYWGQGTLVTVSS VL: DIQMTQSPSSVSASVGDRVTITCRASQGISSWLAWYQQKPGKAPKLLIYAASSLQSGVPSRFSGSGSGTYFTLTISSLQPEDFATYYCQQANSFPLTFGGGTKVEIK
9.03

// sample H4H9640P (antibody, human IgG4, V domains shown, Human IgG4 Fc (H4H)) VH: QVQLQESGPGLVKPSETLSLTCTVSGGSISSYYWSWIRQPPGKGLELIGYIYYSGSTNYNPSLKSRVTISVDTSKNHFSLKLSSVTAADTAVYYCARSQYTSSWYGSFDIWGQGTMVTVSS VL: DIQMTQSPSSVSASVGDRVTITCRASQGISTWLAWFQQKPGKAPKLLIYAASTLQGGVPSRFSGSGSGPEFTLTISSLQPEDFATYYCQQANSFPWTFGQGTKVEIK , its pKd was 9.30
